Hello, the source for this data is paper PMC6204718, in case you need it.

- TARGET_OR_SYSTEM: human A3AR (Homo sapiens)
- Construct: host or cells: CHO-K1 (CHO-ADORA3)
- Sequence (P0DMS8 whole entry): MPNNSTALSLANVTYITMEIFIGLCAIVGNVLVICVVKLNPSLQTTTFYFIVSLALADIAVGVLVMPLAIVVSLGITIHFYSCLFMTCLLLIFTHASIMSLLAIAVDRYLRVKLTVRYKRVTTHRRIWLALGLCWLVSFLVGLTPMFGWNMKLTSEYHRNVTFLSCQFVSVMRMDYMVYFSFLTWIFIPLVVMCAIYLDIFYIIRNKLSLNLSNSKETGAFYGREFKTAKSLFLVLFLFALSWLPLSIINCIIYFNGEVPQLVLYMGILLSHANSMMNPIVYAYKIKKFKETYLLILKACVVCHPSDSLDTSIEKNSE
- PROTOCOL_TEXT: A3AR cell-based functional assay (A3AR-mediated cAMP production, CHO-ADORA3 cells)
- RECORDED_CONDITIONS: target A3AR; cAMP level of ADORA3-CHO cells elicited by NECA; read-out: IC50 (half-maximal inhibitory concentration)
pIC50: −log10 of the molar value.

{"STRUCTURE_NOTATION": "NC(=O)c1nnc2cc(-c3ccccc3)nn2c1-c1ccccc1Cl", "pIC50": "< 5.00"}
{"STRUCTURE_NOTATION": "O/N=C/c1cn(-c2ccccc2)nc1-c1ccccc1", "pIC50": 5.21}
{"STRUCTURE_NOTATION": "CC(=O)Nc1ccc(S(=O)(=O)Nc2cc(C(F)(F)F)cc(C(F)(F)F)c2)cc1", "pIC50": "< 5.00"}
